// reported IC50 per item
Biological target: T1, human amylin receptor (amylin 3(a) receptor: human calcitonin receptor with RAMP-3) (human, UniProt P30988 25-474; O60896 24-148, limits assumed)
T1 construct: whole, on cells; Assay V: membranes of the Amylin 3(a)/CRE-luc BHK cells on SPA beads; also called hAmylin-R
T1 sequence (looked up) 1: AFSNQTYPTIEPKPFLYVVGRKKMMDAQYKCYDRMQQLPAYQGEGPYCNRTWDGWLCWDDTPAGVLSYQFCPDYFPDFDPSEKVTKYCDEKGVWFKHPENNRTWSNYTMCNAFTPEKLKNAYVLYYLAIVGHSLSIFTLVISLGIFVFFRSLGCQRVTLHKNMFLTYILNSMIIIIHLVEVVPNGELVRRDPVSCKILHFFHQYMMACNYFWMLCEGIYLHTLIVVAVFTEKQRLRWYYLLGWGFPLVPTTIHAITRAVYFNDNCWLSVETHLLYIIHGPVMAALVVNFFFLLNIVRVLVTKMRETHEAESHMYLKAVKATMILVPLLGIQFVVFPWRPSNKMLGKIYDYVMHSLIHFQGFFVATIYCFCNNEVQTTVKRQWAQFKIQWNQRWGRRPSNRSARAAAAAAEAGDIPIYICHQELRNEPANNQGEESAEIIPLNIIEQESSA
T1 sequence (looked up) 2: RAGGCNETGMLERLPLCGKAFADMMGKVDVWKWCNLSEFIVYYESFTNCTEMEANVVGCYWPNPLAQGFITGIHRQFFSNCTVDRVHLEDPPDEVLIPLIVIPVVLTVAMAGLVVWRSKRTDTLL
Assay: SPA competition vs 125I-rat amylin, membranes with human CTR + RAMP-3 (Assay V)
Numbered stars: 1 amine (or outer) side, 2 acyl side, 3 side chain; on linkers, the order of the positions; unused ones are H or OH. * marks the point of attachment. C20 diacid = O=C(O)CCCCCCCCCCCCCCCCCCC(=O)*; C16 diacid = O=C(O)CCCCCCCCCCCCCCC(=O)*; γGlu = O=C(O)[C@H](CCC(=O)[*:2])N[*:1]; AEEA = NCCOCCOCC(=O)O
# value in pM; strip the unit string

Query: Give me measured IC50, please, for this binder: {C16 diacid}-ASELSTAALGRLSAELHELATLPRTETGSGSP-NH2 (mimylin derivative; des1 = residue 1 deleted; also called Ex. #49; 49) [[N-terminal(C16 diacid), des1, 30S, 31G]mimylin]
Reply: 15

Query: Give me measured IC50, please, for this binder: {C20 diacid-γGlu-AEEA-AEEA}-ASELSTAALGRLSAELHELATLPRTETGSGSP-NH2 (mimylin derivative; des1 = residue 1 deleted; also called Ex. #42; 42) [[N-terminal(C20 diacid-gGlu-2xOEG), des1, 30S, 31G]mimylin]
Reply: 159

Next, consider the following binder.
Query: Give me measured IC50, please, for this binder: {C20 diacid-γGlu-AEEA}-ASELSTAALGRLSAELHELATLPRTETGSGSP-NH2 (mimylin derivative; des1 = residue 1 deleted; also called Ex. #41; 41) [[N-terminal(C20 diacid-gGlu-OEG), des1, 30S, 31G]mimylin]
Reply: 141

Data credit: patent US20160272683A1
